- System: MS2 coat protein
- procedure.summary: apparent KD of MS2 coat protein; designed switch direction (-1 OFF switch, 1 ON switch): -1; higher = weaker reporter binding
- run.parameters: input ligand: none
What apparent KD of MS2 coat protein was measured for each of the following?
Answers are plain numbers, in µM.

Would you please look over these solved cases?
GUCACAUGGACAUAGGAUCACAUGAGGAUCACCCAUGUGACUAACAAGCUUUUUGUUCGUCUUAUGUCUAUGUGAAA [Stov1/16-B1] (Eterna round: R97, puzzle: Sensor, turn-off variant 1)	0.0116
AGUCGGUCAGGAUAUGCAGACGUAGACAUGAGGAUCACCCAUGUGACGUGGGCCUGGUUUGUAGAAGGGACGAGCA [EX5 #83] (Eterna round: R97, puzzle: Exclusion 5)	0.0193
GAACUAAAGCAAAGCUUUAGUCGUACAUGAGGAUCACCCAUGUAGGAUAUGGUAGGCAAAGCAUACCAGAAGGACAGAGUGAUC [Mat - Exclusion NG 3 - Mod of JL - D63] (Eterna round: R96, puzzle: Exclusion NG 3)	0.371

Count: 2. Required value per item: apparent KD of MS2 coat protein.
1. UGUCUUGCAGGAUAUACAUGAGGAUCACCCAUGUAUAUUGAUGAGGGAGAUCUACUAGGUAGAAGGGUAAGAGA [Eternabot (L2) Solution 59] (Eterna round: R97, puzzle: Exclusion 3)
2. GUAAUUAAUGUAGGAUAUGCAAGGCGAACCUAAGCAGAAGGACAUGAGGAUCACCCAUGUAUUGCGGUCUGCGUUCAGUUCGCU [salish99_ExNG1_r4_011] (Eterna round: R96, puzzle: Exclusion NG 1)

0.0178
0.0102

---

- Test system: K4 kissing-loop RNA reporter;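 also: bound reporter read as fluorescence of individual clusters on recovered sequencing chips by microscopy, with normalized cluster intensities fitted with a binding model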
- procedure.summary: apparent KD of K4 kissing-loop reporter; higher = weaker reporter binding
- run.parameters: Eterna round: R107; input ligand: FMN 200 uM
The class of a record is decided solely by its measured apparent KD of K4 kissing-loop reporter; consult low (below 200 nM), mid (200 nM to below 400 nM), high (400 nM or more)

Answered examples (4):
AAUGAUGAUUGACACAUUUACUAAAAGGAAGGAGCGGCGAAGUAGCCAGGUAGGUCGCCUUAUAGCAGUGAUGUUGCUAUUUGUU [JR_Nu_ExcArginiA_Sub027]	low
ACGUAGUUCUAGGAUACCAGCCAAGGAGGGUAGGACAAAAGUCCUGUAGCCAGUGAUGUUGGCCCUUGGCAGCCUAGAACUACGA [Omei KL Theo B Exc B v3]	low
UAAUUUAUGUCUUUAAUAUAAUUUUCAGAUACCAGUGAUUAUUAACACCCUUGGCAGCUGUGUAGAGUGAUGUUCUCAUGCUUAA [#07 K4 Theophylline A Exclusion]	mid
UAAAUUAUCUGAAGGAGCGUGAAAUAAUAUUAAACAUAACAACCCAGUGAUGUUGGGUUAUCACAGGUAGGUCGCAGAUGUAGAU [Same State Arginie B GF 24]	low

In the following, a different sequence is considered.
Looking at CGUUUAUAGCAGGAUACCAGUACGGAUAAGGUACGUUAAUAGUAGAGUGAUGUUCUAAAGUACCCUUGGCAGCUUAGAGUGAGUG [#20 K4 Theophylline B Exclusion] , which class would you pick? low

---

- System: MS2 coat protein
- procedure.summary: apparent KD of MS2 coat protein; designed switch direction (-1 OFF switch, 1 ON switch): -1; higher = weaker reporter binding
- run.parameters: input ligand: FMN 200 uM
What apparent KD of MS2 coat protein was measured for each of the following?
Give the value; after it, write the unit.

Would you please look over these solved cases?
UGCUGACAAGGAUAUACAUGAGGAUCACCCAUGUUGGUUCAGCGACGAUAGUCGCAAUGUAGAAGGUGUCAGCA [E3/9-C1] (Eterna round: R97, puzzle: Exclusion 3)	135 nM
GUAGAGUCAGGAUAUACGAGAUCGAUAGAUCGGCGAUCCAAACAUGAGGAUCACCCAUGUAGAAGGGACUCUAC [Mat - Exclusion 2 - Eli Mod - D4] (Eterna round: R97, puzzle: Exclusion 2)	1160 nM

Alright, here's another sequence for you.
Answer with the recorded apparent KD of MS2 coat protein for the sequence listed here: AUUAUGUUAGGAUAUGCUUAUGGUGGAUAGUCCAAUGUGGUGCAGAAGGGACAUGAGGAUCACCCAUGUACUGA [EX4 #29] (Eterna round: R97, puzzle: Exclusion 4) 70.5 nM
